The molecules listed here are annotated with their growth.
System: MCF7 breast
Assay: NCI-60 one-dose screen, 48 h (100 = growth as untreated, 0 = no growth, -100 = all killed)
Settings: 10 µM unless noted
Procedure: Growth inhibition of the MCF7 human tumor cell line is measured as a screen for anti-cancer activity. Cells are grown in 96 well plates and exposed to the test compound for 48 hours. Compounds are tested at a single concentration, which is 10^-5 M for most compounds. The reported endpoint is percent growth (GI% or GIPRCNT), where numbers from 0 - 100% represent growth inhibition, and numbers from -100% - 0 represent cell death. For example, a value of 40 represents 60% growth inhibition. […]
The panel holds about 83,000 compounds, 20% with a hit somewhere; the sample as a whole holds those more often.
Please state the figure in %; there is no need to write the unit.

{"Molecule": "COc1ccc(/C=N/NC(=O)c2cn(C3CC3)c3c(OC)c(N4CC5CCCNC5C4)c(F)cc3c2=O)cc1 (stereo not drawn)", "growth (%)": 70.8}
{"Molecule": "CC1(C)[C@@H](O)CC[C@]2(C)[C@H]3CC[C@@H]4[C@H]5[C@H](C(=O)/C=C\\c6ccc([N+](=O)[O-])cc6)CC[C@]5(O)CC[C@@]4(C)[C@]3(C)CC[C@@H]12", "growth (%)": 38.7}
{"Molecule": "O=S(=O)(Nc1ccc2c(c1)OCO2)c1ccc(-c2cnc(C3CC3)o2)cc1", "growth (%)": 22.3}

Shift focus to the following entry.
Reported growth of `CN1CCN(Cc2ccc(NC(=O)c3cncc(C#Cc4cnc5ccc(NCCCO)nn45)c3)cc2C(F)(F)F)CC1` : -34.5

====

Test system: OVCAR-5 ovarian
Experiment: NCI-60 one-dose screen, 48 h (100 = growth as untreated, 0 = no growth, -100 = all killed)
Conditions: 10 µM unless noted
Compounds without any hit were thinned out: in the full panel of roughly 83,000, 20% have a hit.
Assay endpoint: growth (%)
Please state the figure in %; there is no need to write the unit.

Some entries whose results are on file:
{"Compound": "O=C1CCCc2nc(Nc3ccc(S(=O)(=O)Nc4ccc([N+](=O)[O-])cc4)cc3)ncc21", "growth (%)": 111}
{"Compound": "Oc1[nH]c2ccccc2c1Nn1c(N=N/C=c2/ccc3c(c2)C=NN=3)n[nH]c1=S", "growth (%)": 109}
{"Compound": "Cc1ccc(-n2cc(/C=N/NC(=O)c3nc(N)n[nH]3)c(-c3ccc(S(C)(=O)=O)cc3)n2)cc1", "growth (%)": 105}
{"Compound": "Cc1ccc(NC(=O)c2ccc(CN3CCOCC3)c(C(F)(F)F)c2)cc1Oc1ccc(-c2[nH]nc3ncnc(N)c23)cc1", "growth (%)": 72}
{"Compound": "CCCCCc1ccc(S(=O)(=O)Nc2cc(-c3csc(NC(=O)CN4CCN(C)CC4)n3)ccc2N2CCN(C)CC2)cc1", "growth (%)": 18.4}

growth for OVCAR-5 ovarian with input `NS(=O)(=O)c1ccc(-n2cc(CN3CCCCC3)nn2)cc1` equals 105

growth for OVCAR-5 ovarian with input CC(O)c1cc2ccccc2c(=O)o1 (centres undefined) equals 103

growth for OVCAR-5 ovarian with input O=C1Nc2ccccc2/C1=C/c1ccc(COCC2CO2)n1-c1ccc(O)cc1 (centres undefined) equals 107

growth for OVCAR-5 ovarian with input `O=S(=O)(Nc1ccc2c(c1)OCO2)c1ccc(-c2cnc(C3CC3)o2)cc1` equals 60.7

====

Tested on: T-47D breast
Test: NCI-60 one-dose screen, 48 h (100 = growth as untreated, 0 = no growth, -100 = all killed)
Details: 10 µM unless noted
This is part of a sample that, as a whole, favours compounds with a hit. Of some 83,000 tested, about 20% had one in any assay.
Rule for this label: Met means growth is less than 60%; Not met means growth is at least 60%.

Worked cases, answers included:
{"Compound": "NC(N)=Nc1ccc(Oc2cccc(NC(N)=Nc3ccc(Cl)c(C(F)(F)F)c3)c2)cc1", "Class label": "Met"}
{"Compound": "Cc1ccc2c(c1)C(=O)/C(=C/c1cccc(F)c1)S2", "Class label": "Not met"}
{"Compound": "CC(C)(C)c1ccc(-c2nnc(-c3nc4ccccc4nc3Cl)o2)cc1", "Class label": "Met"}
{"Compound": "Clc1nc2ccccc2nc1-c1nnc(C2CCCCC2)o1", "Class label": "Not met"}
{"Compound": "Oc1ccc(CSc2nnc(-c3ccc(Cl)cc3)n2-c2ccccc2)c2cccnc12", "Class label": "Met"}

Query :: Confirm or reject: growth of `CNC(=O)c1cc(Oc2ccc3nc(NC(=O)c4cccc(OC(F)(F)F)c4)sc3c2)ccn1` lies strictly below 60%
Result :: Not met

Query :: Confirm or reject: growth of `COc1ccc([C@@H]2c3[nH]c4ccccc4c3C[C@H]3C(=O)N(C4CCN(CC5CCCCC5)CC4)CC(=O)N23)c(OC)c1` lies strictly below 60%
Result :: Not met

Query :: Confirm or reject: growth of O=C1CCC(N2C(=O)c3ccc(NS(=O)(=O)c4ccccc4OC(F)(F)F)cc3C2=O)C(=O)N1 (centres undefined) lies strictly below 60%
Result :: Met

Query :: Confirm or reject: growth of `NC(N)=Nc1ccc(Oc2cccc(NC(N)=Nc3ccc(Cl)c(C(F)(F)F)c3)c2)cn1` lies strictly below 60%
Result :: Met

====

System: NCI-H226 lung
Assay: NCI-60 one-dose screen, 48 h (100 = growth as untreated, 0 = no growth, -100 = all killed)
Conditions: 10 µM unless noted
This is part of a sample that, as a whole, favours compounds with a hit. Of some 83,000 tested, about 20% had one in any assay.
Field: class. Source value: growth. Ranges: lower = under 70%, middle = from 70% up to 80%, upper = 80% and over

Worked cases, answers included:
{"Molecule": "CCOc1cccc(-c2nc3sccn3c2-c2ccnc(S(C)(=O)=O)n2)c1", "Class label": "upper"}
{"Molecule": "Nc1nc(-c2cccc([N+](=O)[O-])c2)c(N=Nc2ccccc2)s1", "Class label": "middle"}
{"Molecule": "COc1ccc(CCOc2cc3c(cc2OC)CCN(C(=O)NCc2cocn2)C3c2ccc(C)cc2C)cc1 (stereo not given)", "Class label": "lower"}
{"Molecule": "COc1ccc(/C=C/C(=O)c2cc(S(N)(=O)=O)c(OC)cc2OC)cc1", "Class label": "upper"}
{"Molecule": "CCCCNNC(=O)c1ccc(-c2cccc(F)c2F)cc1", "Class label": "lower"}
{"Molecule": "CCO/C=N/C1=C(C#N)C(c2ccc(OC)cc2)c2sc3c(C)cccc3c2O1 (stereo not given)", "Class label": "lower"}
{"Molecule": "COc1ccc(-n2c(SCc3nnc(NC(=O)c4ccc(Br)cc4)s3)nc3cc(OC)c(OC)cc3c2=O)cc1", "Class label": "middle"}

Below: the item to evaluate.
Query :: Which category does the recorded growth put `NC/C(=C/F)COc1ccc2nc(NCc3cccnc3)oc2c1` in?
Result :: upper

====

Test system: T-47D breast
Assay: NCI-60 one-dose screen, 48 h
Conditions: 10 µM unless noted
Compounds without any hit were thinned out: in the full panel of roughly 83,000, 20% have a hit. Calls of active or inactive are those of the source. The calls were made as follows: active = growth percent below 10; inactive = the rest.
Write down one outcome, taken from class 1 = active, class 0 = inactive

Query :: // return assay outcome for `Cc1cc(-c2ccc(Cl)cc2)n(Cc2nnc(SCC(=O)Nc3ccc(S(N)(=O)=O)cc3)n2C2CCCCC2)n1`
Result :: class 0

Query :: // return assay outcome for `CN(C)CCNC(=O)c1ccc(-c2nc3ccc4[nH]ncc4c3c3c2COCC3)cc1`
Result :: class 1

Query :: // return assay outcome for `CC(=O)c1ccc(Nc2nc(SCC(C)C)nc(-c3ccccc3)c2C#N)cc1`
Result :: class 0

Query :: // return assay outcome for `C=C(C)[C@@H]1CC[C@]2(C(=O)NCCCCCN(CCC#N)CCC#N)CC[C@]3(C)[C@H](CC[C@@H]4[C@@]5(C)CCC(=O)C(C)(C)[C@@H]5CC[C@]43C)[C@@H]12`
Result :: class 0

Query :: // return assay outcome for `NC(N)=Nc1ccc(Oc2cccc(Nc3ccc(Br)c(C(F)(F)F)c3)c2)cc1`
Result :: class 0

Query :: // return assay outcome for `COc1ccc(CCN2C(=O)CSC2=S)cc1`
Result :: class 0

Query :: // return assay outcome for `CN1CCC(n2cc(Nc3ncc4c(=O)n(-c5c(Cl)cccc5Cl)cc(Br)c4n3)cn2)CC1`
Result :: class 0

Query :: // return assay outcome for `O=C(c1ccc(O)c(C(=O)N2Cc3ccc(OCCC[P+](c4ccccc4)(c4ccccc4)c4ccccc4)cc3C2)c1)N1Cc2cccc(F)c2C1`
Result :: class 0

====

Tested on: BT-549 breast
Assay: NCI-60 one-dose screen, 48 h
Conditions: 10 µM unless noted
Compounds without any hit were thinned out: in the full panel of roughly 83,000, 20% have a hit. Activity calls are given as the source filed them. How the source made its calls: active means growth percent below 10; inactive means the rest.
Write down one outcome, taken from Yes for active, No for inactive

Worked cases, answers included:
{"Compound": "COc1cc(/C=C2\\C(=O)Nc3ccccc32)ccc1OCc1ccc(Cl)cc1", "Class label": "No"}
{"Compound": "NC(N)=Nc1ccc(Oc2cccc(Oc3ccc(Cl)c(C(F)(F)F)c3)c2)cn1", "Class label": "No"}
{"Compound": "CC(=O)c1nnn(-c2c(C(=O)n3nc(C)cc3C)sc(=S)n2-c2ccccc2)c1C", "Class label": "No"}

Query :: // return assay outcome for `Nc1ncc(-c2ccc3ncnc(N4CCc5cc(F)c(F)cc54)c3c2)cn1`
Result :: No

Query :: // return assay outcome for `N#Cc1cccc(CN2CCC3=C(C2)C(=O)N(Cc2ccc(Cl)cc2)C2=NCCCN23)c1`
Result :: No
